pIC50: −log10 of the molar value.
As an illustration, consider measured pIC50 for molecules on EGFR (Homo sapiens (Human)).
Sequence (P00533 25-1210): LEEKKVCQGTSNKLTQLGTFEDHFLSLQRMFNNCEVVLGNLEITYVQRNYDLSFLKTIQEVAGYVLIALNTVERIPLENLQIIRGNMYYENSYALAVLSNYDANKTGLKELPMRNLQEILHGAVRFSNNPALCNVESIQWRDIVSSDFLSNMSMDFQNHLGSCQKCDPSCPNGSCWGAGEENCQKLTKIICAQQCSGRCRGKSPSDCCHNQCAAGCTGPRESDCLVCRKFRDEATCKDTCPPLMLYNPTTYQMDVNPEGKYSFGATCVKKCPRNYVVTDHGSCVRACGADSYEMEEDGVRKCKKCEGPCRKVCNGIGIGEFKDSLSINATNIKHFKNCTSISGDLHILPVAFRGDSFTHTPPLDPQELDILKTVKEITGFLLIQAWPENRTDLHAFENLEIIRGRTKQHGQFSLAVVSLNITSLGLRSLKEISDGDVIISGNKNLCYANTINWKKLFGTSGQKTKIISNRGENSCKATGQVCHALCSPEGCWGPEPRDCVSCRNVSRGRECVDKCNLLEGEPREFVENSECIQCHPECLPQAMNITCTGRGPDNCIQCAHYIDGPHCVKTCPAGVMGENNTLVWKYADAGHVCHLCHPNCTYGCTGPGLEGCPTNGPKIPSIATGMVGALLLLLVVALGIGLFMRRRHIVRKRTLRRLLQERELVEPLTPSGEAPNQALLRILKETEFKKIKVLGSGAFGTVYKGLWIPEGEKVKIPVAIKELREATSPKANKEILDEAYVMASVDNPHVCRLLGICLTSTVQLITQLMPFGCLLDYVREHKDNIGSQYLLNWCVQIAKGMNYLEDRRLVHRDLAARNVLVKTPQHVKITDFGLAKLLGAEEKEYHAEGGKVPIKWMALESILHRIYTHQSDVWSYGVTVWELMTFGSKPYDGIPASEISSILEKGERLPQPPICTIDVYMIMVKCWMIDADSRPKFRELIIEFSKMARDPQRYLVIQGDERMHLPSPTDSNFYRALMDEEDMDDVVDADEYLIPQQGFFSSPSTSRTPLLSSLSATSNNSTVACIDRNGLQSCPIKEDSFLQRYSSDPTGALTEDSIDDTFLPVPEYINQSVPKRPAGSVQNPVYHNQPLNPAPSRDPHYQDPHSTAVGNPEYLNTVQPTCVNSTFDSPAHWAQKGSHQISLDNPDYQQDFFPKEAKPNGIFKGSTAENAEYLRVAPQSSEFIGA

molecule: C[C@@H](Nc1c(C#N)cnc2ccc(-c3cnc(Cl)c(NS(C)(=O)=O)c3)cc12)c1ccccc1 [Compound 48R]
pIC50: 7.70 to 8.70

molecule: CS(=O)(=O)Nc1cc(-c2ccc3ncnc(NCc4ccccc4)c3c2)cnc1Cl [Comparative Compound 1, reference compound]
pIC50: 6.70 to 7.70

molecule: C[C@@H](Nc1c(C#N)cnc2ccc(-c3cnc(N)nc3)cc12)c1ccccc1 [Compound 53R]
pIC50: 7.70 to 8.70

* * *

Test: Pharmacokinetics in mice, single IV or oral administration
Assay type: in vivo, mouse
Details: blood, 25 mg/kg; mouse, oral, 25 mpk

molecule: C[C@@H](Nc1ncnc2ccc(-c3cnc(Cl)c(NS(C)(=O)=O)c3)cc12)c1ccccc1 [Compound 2R]
units symbol: h
Tmax: 4.17

* * *

Assay: Pharmacokinetics in monkeys, single IV or oral administration
Assay type: in vivo, monkey
Conditions: blood, 10 mg/kg; monkey, oral, 10 mpk
Experimental: The pharmacokinetics of Compound 2R (HCl salt) and Comparative Compound 2 were studied following a single intravenous and/or oral administration to mice, dogs, and monkeys (n=3 for all species). The IV and PO solution formulations for Comparative Compound 2 contained 20% (w/v) propylene glycol, 75% (w/v) 50 mM trisodium phosphate (pH 12), and 5% (w/v) Kolliphor EL. […] Blood concentration-time data were analyzed by non-compartmental methods.
half-life listing for selected compounds.

compound: C[C@@H](Nc1ncnc2ccc(-c3cnc(Cl)c(NS(C)(=O)=O)c3)cc12)c1ccccc1 [Compound 2R]
half-life / h: 4
//
compound: CS(=O)(=O)Nc1cc(-c2ccc3ncnc(Nc4ccc(F)c(Cl)c4)c3c2)cnc1Cl [Comparative Compound 2, reference compound]
half-life / h: 2

* * *

Target or system DNA-PK (Homo sapiens (Human)); recorded quantity pIC50.
pIC50: −log10 of the molar value.

compound: C[C@H](Nc1c(C#N)cnc2ccc(-c3cnc(Cl)c(NS(C)(=O)=O)c3)cc12)c1ccc(F)cc1 [Compound 97S]
pIC50: > 8.70

compound: CC(Nc1c(C#N)cnc2ccc(-c3cnc4[nH]ncc4c3)cc12)c1ccccc1 (stereo not drawn) [Compound 54]
pIC50: 7.70 to 8.70

compound: C[C@@H](Nc1c(C#N)cnc2ccc(-c3cnc(N)nc3)cc12)c1ccccc1 [Compound 53R]
pIC50: 6.70 to 7.70

compound: C[C@H](Nc1ncnc2ccc(-c3cnc(Cl)c(NS(C)(=O)=O)c3)cc12)c1ccccc1 [Compound 2S]
pIC50: > 8.70

compound: C[C@@H](Nc1ncnc2ccc(-c3cnc(Cl)c(NS(C)(=O)=O)c3)cc12)c1ccccc1 [Compound 2R]
pIC50: 7.70 to 8.70

compound: C[C@H](Nc1ncnc2ccc(-c3cnc(Cl)c(NS(C)(=O)=O)c3)cc12)c1ccc(F)cc1 [Compound 111S]
pIC50: > 8.70

* * *

Test: Pharmacokinetics in mice, single IV or oral administration
Assay type: in vivo, mouse
Details: blood, 10 mg/kg; mouse, oral, 10 mpk
experimental endpoint: half-life (h)

compound: CS(=O)(=O)Nc1cc(-c2ccc3ncnc(Nc4ccc(F)c(Cl)c4)c3c2)cnc1Cl [Comparative Compound 2, reference compound]
experimental endpoint: half-life
units symbol: h
readout number: 1.4

* * *

Biological target: PI3Ka (Homo sapiens (Human), UniProt P42336)
Sequence (P42336 whole entry): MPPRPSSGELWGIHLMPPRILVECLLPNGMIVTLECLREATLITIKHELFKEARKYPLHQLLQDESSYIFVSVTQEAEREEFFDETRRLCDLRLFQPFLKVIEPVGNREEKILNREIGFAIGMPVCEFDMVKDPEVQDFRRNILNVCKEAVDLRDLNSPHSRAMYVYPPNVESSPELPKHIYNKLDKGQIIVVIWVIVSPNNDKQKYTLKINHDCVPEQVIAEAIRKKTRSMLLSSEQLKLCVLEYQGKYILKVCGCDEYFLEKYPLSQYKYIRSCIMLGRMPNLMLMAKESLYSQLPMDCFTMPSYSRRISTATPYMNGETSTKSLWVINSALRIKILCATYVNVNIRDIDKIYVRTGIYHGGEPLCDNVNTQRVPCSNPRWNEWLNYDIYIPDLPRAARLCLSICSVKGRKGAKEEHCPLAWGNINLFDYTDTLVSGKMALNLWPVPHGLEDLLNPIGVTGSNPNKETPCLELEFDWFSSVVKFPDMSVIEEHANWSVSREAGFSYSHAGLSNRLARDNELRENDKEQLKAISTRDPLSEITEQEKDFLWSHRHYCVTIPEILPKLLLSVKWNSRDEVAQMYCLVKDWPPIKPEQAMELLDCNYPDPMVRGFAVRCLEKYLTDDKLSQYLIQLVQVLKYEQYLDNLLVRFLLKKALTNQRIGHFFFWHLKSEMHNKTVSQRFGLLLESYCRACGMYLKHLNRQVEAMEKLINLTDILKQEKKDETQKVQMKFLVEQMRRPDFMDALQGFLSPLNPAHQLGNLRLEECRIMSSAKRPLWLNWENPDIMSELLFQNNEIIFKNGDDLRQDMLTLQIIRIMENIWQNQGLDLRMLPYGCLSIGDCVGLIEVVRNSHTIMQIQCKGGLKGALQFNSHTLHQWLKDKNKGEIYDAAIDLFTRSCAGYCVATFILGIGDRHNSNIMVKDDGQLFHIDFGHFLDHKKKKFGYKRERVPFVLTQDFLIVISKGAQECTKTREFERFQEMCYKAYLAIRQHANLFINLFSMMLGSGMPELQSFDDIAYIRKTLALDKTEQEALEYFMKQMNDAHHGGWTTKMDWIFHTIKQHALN
Sequence (P27986 whole entry partner): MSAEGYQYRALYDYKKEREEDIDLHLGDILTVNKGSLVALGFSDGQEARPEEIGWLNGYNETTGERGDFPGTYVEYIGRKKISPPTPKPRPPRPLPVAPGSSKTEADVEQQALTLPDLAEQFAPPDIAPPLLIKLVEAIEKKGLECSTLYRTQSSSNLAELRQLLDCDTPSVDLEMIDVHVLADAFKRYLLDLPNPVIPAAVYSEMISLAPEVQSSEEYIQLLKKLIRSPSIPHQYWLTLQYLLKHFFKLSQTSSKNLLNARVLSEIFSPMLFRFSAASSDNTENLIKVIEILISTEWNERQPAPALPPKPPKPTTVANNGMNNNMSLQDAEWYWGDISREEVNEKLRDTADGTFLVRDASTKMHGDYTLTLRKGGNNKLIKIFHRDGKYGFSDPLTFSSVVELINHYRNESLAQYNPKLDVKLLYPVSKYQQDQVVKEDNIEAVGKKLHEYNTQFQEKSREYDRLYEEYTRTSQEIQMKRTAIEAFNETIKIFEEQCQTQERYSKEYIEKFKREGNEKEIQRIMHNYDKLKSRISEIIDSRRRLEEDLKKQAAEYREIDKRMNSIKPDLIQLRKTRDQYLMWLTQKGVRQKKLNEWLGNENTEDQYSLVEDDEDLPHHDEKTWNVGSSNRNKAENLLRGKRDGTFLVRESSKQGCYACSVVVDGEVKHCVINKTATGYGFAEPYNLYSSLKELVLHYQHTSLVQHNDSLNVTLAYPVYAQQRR
Assay: Z'-LYTE / Adapta kinase assay, PI3Ka
Assay type: biochemical
Conditions: read-out: PI3Ka % Inh. @ 100 nM
inhibition at 0.1 µM: recorded values

compound: CC(Nc1c(C#N)cnc2ccc(-c3cnc4[nH]nnc4c3)cc12)c1ccccc1 (stereo not shown) [Compound 70]
system tested: PI3Ka (Homo sapiens (Human), UniProt P42336)
inhibition at 0.1 µM: 10 to 80%
//
compound: C[C@@H](Nc1c(C#N)cnc2ccc(-c3cnc4[nH]ncc4c3)cc12)c1ccccc1 [Compound 54R]
system tested: PI3Ka (Homo sapiens (Human), UniProt P42336)
inhibition at 0.1 µM: 10 to 80%
//
compound: CC(Nc1c(C#N)cnc2ccc(-c3cccc(-c4nnc[nH]4)c3)cc12)c1ccccc1 (stereo not shown) [Compound 128]
system tested: PI3Ka (Homo sapiens (Human), UniProt P42336)
inhibition at 0.1 µM: < 10%
//
compound: C[C@H](Nc1ncnc2ccc(-c3cnc(Cl)c(NS(C)(=O)=O)c3)cc12)c1ccccc1 [Compound 2S]
system tested: PI3Ka (Homo sapiens (Human), UniProt P42336)
inhibition at 0.1 µM: > 90%

Where these numbers come from: patent US11673876B2
